Molecular target: T1, monkey MSLN on HEK293T-monkey MSLN recombinant cells (monkey)
T1 construct: Full-length precursor as transfected; processing on the cell is not described; also called HEK293-monkey MSLN
T1 chain: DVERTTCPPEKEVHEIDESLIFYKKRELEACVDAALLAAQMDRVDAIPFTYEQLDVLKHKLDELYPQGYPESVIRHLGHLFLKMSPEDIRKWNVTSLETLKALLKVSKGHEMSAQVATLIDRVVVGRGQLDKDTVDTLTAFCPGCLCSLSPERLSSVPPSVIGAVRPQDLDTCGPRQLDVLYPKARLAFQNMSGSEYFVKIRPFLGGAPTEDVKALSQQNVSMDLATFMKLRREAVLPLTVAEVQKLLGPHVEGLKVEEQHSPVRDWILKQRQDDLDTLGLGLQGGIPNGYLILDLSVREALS
Assay: FACS, HEK293T-monkey MSLN cells
Recorded Maximum_MFI for the following binders
# unit: MFI | format: bare number

Observe how each entry below is paired with its result.
F2.23.12-H13 (scFv, not shown: small tags and cut ends, also called S009-F2.23.12 humanized antibody VH4 + VL1) scFv: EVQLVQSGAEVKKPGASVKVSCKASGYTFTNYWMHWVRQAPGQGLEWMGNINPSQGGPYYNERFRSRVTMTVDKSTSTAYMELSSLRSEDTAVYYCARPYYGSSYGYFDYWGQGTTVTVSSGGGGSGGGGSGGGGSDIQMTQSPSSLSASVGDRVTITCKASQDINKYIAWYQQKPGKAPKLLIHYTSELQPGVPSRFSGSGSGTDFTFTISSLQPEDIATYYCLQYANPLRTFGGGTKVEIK	17600
F2.39.3-H1 (scFv, not shown: small tags and cut ends, also called S009-F2.39.3 humanized antibody VH1 + VL1) scFv: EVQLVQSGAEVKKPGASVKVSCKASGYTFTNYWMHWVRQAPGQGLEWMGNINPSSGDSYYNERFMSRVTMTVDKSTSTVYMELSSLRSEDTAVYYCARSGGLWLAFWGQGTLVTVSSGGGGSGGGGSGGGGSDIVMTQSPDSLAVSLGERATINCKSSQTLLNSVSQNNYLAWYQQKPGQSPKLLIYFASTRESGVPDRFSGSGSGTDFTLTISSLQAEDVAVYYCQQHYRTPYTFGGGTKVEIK	24400

Recorded Maximum_MFI of F2.39.3-H8 (scFv, not shown: small tags and cut ends, also called S009-F2.39.3 humanized antibody VH2 + VL4) scFv: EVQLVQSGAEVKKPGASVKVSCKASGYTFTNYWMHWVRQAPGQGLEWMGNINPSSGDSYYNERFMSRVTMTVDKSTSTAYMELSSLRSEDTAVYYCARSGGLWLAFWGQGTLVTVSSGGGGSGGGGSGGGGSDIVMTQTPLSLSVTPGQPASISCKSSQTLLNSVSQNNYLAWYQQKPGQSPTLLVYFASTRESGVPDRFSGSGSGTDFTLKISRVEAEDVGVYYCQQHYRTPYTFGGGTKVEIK , please.
26000

// lookup Maximum_MFI for F2.39.3-H6 (scFv, not shown: small tags and cut ends, also called S009-F2.39.3 humanized antibody VH2 + VL2) scFv: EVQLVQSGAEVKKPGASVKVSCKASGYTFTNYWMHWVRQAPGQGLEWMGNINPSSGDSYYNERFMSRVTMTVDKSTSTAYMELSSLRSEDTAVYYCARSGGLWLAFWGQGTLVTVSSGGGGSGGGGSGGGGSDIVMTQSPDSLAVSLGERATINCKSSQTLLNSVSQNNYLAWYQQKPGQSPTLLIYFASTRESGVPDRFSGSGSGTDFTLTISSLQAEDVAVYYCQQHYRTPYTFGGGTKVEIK
24100

# get_value(readout='Maximum_MFI', item= F2.23.12-H16 (scFv, not shown: small tags and cut ends, also called S009-F2.23.12 humanized antibody VH4 + VL4) scFv: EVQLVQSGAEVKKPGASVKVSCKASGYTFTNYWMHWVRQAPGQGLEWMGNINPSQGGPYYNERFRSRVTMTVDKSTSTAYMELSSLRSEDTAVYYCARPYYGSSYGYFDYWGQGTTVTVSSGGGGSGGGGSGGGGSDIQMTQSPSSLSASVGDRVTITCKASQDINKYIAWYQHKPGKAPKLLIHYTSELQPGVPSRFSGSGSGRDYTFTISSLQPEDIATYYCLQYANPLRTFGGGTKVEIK )
16100

// returns reported Maximum_MFI for input F2.23.12-H5 (scFv, not shown: small tags and cut ends, also called S009-F2.23.12 humanized antibody VH2 + VL1) scFv: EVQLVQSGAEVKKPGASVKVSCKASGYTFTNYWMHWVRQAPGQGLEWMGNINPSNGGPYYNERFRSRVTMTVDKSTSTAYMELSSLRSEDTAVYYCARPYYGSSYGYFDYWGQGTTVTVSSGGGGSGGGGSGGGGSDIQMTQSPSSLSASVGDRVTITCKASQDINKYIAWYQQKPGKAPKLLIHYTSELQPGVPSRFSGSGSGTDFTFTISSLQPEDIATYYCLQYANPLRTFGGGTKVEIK
17700

Sample F2.39.3-H2 (scFv, not shown: small tags and cut ends, also called S009-F2.39.3 humanized antibody VH1 + VL2) scFv: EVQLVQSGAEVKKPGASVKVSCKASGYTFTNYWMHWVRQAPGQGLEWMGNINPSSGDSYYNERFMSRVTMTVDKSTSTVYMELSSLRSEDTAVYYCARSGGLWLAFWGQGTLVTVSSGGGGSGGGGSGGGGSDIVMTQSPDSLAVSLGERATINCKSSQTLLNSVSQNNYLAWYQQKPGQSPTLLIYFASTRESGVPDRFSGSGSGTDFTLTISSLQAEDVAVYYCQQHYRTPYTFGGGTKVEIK — what was its Maximum_MFI?
24900
